Exercise: for every item that follows, state its recorded RP-LC retention time.
- experiment-notes: gradient 5% acetonitrile 3 min, to 50% in 2 min, to 85% in 15 min, held 3 min, 100 µL/min
- test-settings: column: Zorbax Extend-C18 2.1 x 50 mm; eluents: water / acetonitrile, 0.1% formic acid
Value expressed in s; do not type the unit.

Query block: For the compound shown here, `CCCn1cc(-c2ccncc2)cc1C(=O)NCc1cc(F)cc(F)c1` , give the reported RP-LC retention time.
Result block: 711

Query block: For the compound shown here, `O=C(Cn1nc2c3ccc(F)cc3ncn2c1=O)NCc1ccc(F)cc1` , give the reported RP-LC retention time.
Result block: 668

Query block: For the compound shown here, `O=C(NCCc1cccs1)c1nnc(-c2ccc(S(=O)(=O)N3CCCC3)cc2)o1` , give the reported RP-LC retention time.
Result block: 889

Query block: For the compound shown here, `Cc1ccc(CSc2ccc(-n3nc4c(c3C)CCC4)nn2)cc1` , give the reported RP-LC retention time.
Result block: 1370

Query block: For the compound shown here, `Cc1ccccc1Nc1c(-c2ccc(Cl)cc2)nc2c(C)cccn12` , give the reported RP-LC retention time.
Result block: 802
